B1: Hairpin Ribozyme (parent)
chain: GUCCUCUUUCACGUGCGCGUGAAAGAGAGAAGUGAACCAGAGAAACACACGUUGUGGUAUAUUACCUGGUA

# Variants of: B1
# Run description: self-cleavage, relative activity (ratio to wild type); higher = more cleavage; co-transcriptional
Exercise: state measured self-cleavage for each of the variants provided.
Format: numeric value only, no unit, no commentary.

Endpoint output: self-cleavage of C12U A64G . Value?
0.564

// lookup self-cleavage for U58A A61G
0.27

What does the data say about its self-cleavage? Entry: C6A G27A
0.126

# get_value(readout='self-cleavage', item= A23C A31C )
0.185

Item under review: G19A G68U . Reported self-cleavage?
0.242

Give the measured self-cleavage of U2C G42C .
0.108

# query: self-cleavage of entry C50G U62G
0.151

Reported self-cleavage for U5A U9G : what is it?
0.231

Quick check: self-cleavage of C46G U53G ?
0.186

I have this variant here, G21U C46U , and I need its recorded self-cleavage.
0.128

Requested read-out: self-cleavage. Entry: G34A A59C
0.148

Look at this variant and give its reported self-cleavage. G34C
1.4

Can you share its self-cleavage? I mean this variant: G21U A49C
0.219

GET /values?readout=self-cleavage&item= G19A A26G
0.932

Bench note: what self-cleavage did A28U C66A show?
0.194

Please report the recorded self-cleavage for G32A A64G .
0.142

Could you share which self-cleavage value was measured for A47U U70A ?
0.276

# get_value(readout='self-cleavage', item= A41C G51U )
1.48

Given G27C C50G , state its recorded self-cleavage.
0.114

Can you share its self-cleavage? I mean this variant: A44U A71G
0.293

Consider the variant shown here: G21C G57U What is its recorded self-cleavage?
0.189

Please give the measured self-cleavage for this variant: A28U U55A
0.235

These entries and their values trace back to the RNAGym collection of RNA variant scans (doi:10.7554/elife.80360).
